- assay.target: 5-hydroxytryptamine receptor 1A (Homo sapiens, UniProt P08908)
- Sequence (P08908 whole entry): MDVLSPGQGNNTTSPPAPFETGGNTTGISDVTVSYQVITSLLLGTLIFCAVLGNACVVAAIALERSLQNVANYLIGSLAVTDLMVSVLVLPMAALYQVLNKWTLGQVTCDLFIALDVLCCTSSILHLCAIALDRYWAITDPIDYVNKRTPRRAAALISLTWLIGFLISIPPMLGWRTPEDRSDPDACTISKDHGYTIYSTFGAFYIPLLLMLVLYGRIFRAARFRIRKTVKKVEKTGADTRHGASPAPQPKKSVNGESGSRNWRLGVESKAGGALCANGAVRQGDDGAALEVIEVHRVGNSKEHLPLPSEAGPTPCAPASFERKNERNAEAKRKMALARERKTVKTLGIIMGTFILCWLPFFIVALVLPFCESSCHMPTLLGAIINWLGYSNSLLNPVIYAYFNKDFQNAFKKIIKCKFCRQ
- experiment.description: Displacement of [3H]-OH-DPAT from human recombinant 5-HT1A receptor measured after 60 mins by scintillation counter method

{"molecule": "C=CCc1ccccc1OCC(O)CNCCOCCOCCOCCOCCNC(=O)C1C(C(=O)O)C(C(=O)O)C1C(=O)O (configuration not stated)", "Ki [nM]": 1780}
{"molecule": "CC(C)NCC(O)COc1ccccc1CCCSCC(=O)NCCOCCOCCNC(=O)CCCCCC1(C)C(/C=C/C=C/C=C2/N(CCCS(=O)(=O)O)c3ccc(S(=O)(=O)O)cc3C2(C)C)=[N+](CCCS(=O)(=O)[O-])c2ccc(S(=O)(=O)O)cc21 (configuration not stated)", "Ki [nM]": 925}
{"molecule": "CC(C)NCC(O)COc1ccccc1CCCSCC(=O)NCCOCCOCCNC(=O)OC(C)(C)C (configuration not stated)", "Ki [nM]": 48.9}
{"molecule": "C=CCc1ccccc1OCC(O)CNCCOCCOCCOCCOCCNC(=O)OC(C)(C)C (configuration not stated)", "Ki [nM]": 24.1}
{"molecule": "CC(C)NCC(O)COc1ccccc1CCCSCC(=O)NCCOCCOCCN (configuration not stated)", "Ki [nM]": 2860}
{"molecule": "COC(=O)CSCCCc1ccccc1OCC(O)CNC(C)C (configuration not stated)", "Ki [nM]": 56.1}
{"molecule": "CC(C)NCC(O)COc1ccccc1CCCSCC(=O)NCCOCCOCCNC(=O)CS(=O)(=O)O (configuration not stated)", "Ki [nM]": 1780}
{"molecule": "C=CCc1ccccc1OCC(O)CNCCOCCOCCOCCOCCN (configuration not stated)", "Ki [nM]": 35.8}
{"molecule": "C=CCc1ccccc1OCC(O)CNC(C)C (configuration not stated)", "Ki [nM]": 21.6}
{"molecule": "C=CCc1ccccc1OCC(O)CNCCOCCOCCOCCOCCNC(=O)CCCCCC1(C)C(/C=C/C=C/C=C2/N(CCCS(=O)(=O)O)c3ccc(S(=O)(=O)O)cc3C2(C)C)=[N+](CCCS(=O)(=O)[O-])c2ccc(S(=O)(=O)O)cc21 (configuration not stated)", "Ki [nM]": 2860}
{"molecule": "CC(C)NCC(O)COc1ccccc1CCCSCC(=O)NCCOCCOCCNC(=O)C1C(C(=O)O)C(C(=O)O)C1C(=O)O (configuration not stated)", "Ki [nM]": 1720}
{"molecule": "C=CCc1ccccc1OCC(O)CNCCOCCOCCOCCOCCNC(=O)CS(=O)(=O)O (configuration not stated)", "Ki [nM]": 261}

====

- experiment.description: Permeability of compound in 5% DMSO after 7 hrs by PAMPA
- Assay type: ADME
- test.conditions: read-out: permeability
Documented Papp at 7 h across a set of molecules
reported.property: Papp at 7 h (×10⁻⁶ cm/s)

{"molecule": "Cc1nn(CCOCCOCCNC(=O)CCCCCC2(C)C(/C=C/C=C/C=C3/N(CCCS(=O)(=O)O)c4ccc(S(=O)(=O)O)cc4C3(C)C)=[N+](CCCS(=O)(=O)[O-])c3ccc(S(=O)(=O)O)cc32)cc1-c1ccc2cc(CCN3CCC[C@H]3C)ccc2n1 (stereo not given in full)", "reported.property": "Papp at 7 h", "obs.value": 0.284}
{"molecule": "C=CCc1ccccc1OCC(O)CNCCOCCOCCOCCOCCNC(=O)C1C(C(=O)O)C(C(=O)O)C1C(=O)O (stereo not given)", "reported.property": "Papp at 7 h", "obs.value": 0.0012}
{"molecule": "O=C(c1cc(Cc2n[nH]c(=O)c3ccccc23)ccc1F)N1CCN(C(=O)C2CC2)CC1", "reported.property": "Papp at 7 h", "obs.value": 3.37}
{"molecule": "Cc1nc(Nc2ncc(C(=O)Nc3c(C)cccc3Cl)s2)cc(N2CCN(CCOCCOCCNC(=O)OC(C)(C)C)CC2)n1", "reported.property": "Papp at 7 h", "obs.value": 0.0065}
{"molecule": "O=C(/C=C/c1cccnc1)NCCCCC1CCN(C(=O)c2ccccc2)CC1", "reported.property": "Papp at 7 h", "obs.value": 39.5}
{"molecule": "Cc1nn(CCOCCOCCNC(=O)C2C(C(=O)O)C(C(=O)O)C2C(=O)O)cc1-c1ccc2cc(CCN3CCC[C@H]3C)ccc2n1 (stereo not given in full)", "reported.property": "Papp at 7 h", "obs.value": 0.0131}
{"molecule": "O=C(c1cc(Cc2n[nH]c(=O)c3ccccc23)ccc1F)N1CCNCC1", "reported.property": "Papp at 7 h", "obs.value": 0.081}
{"molecule": "Cc1nn(CCOCCOCCN)cc1-c1ccc2cc(CCN3CCC[C@H]3C)ccc2n1", "reported.property": "Papp at 7 h", "obs.value": 0.0246}
{"molecule": "Cc1nc(Nc2ncc(C(=O)Nc3c(C)cccc3Cl)s2)cc(N2CCN(CCOCCOCCNC(=O)CS(=O)(=O)O)CC2)n1", "reported.property": "Papp at 7 h", "obs.value": 0.0274}
{"molecule": "Cc1nn(C)cc1-c1ccc2cc(CCN3CCC[C@H]3C)ccc2n1", "reported.property": "Papp at 7 h", "obs.value": 1.13}
{"molecule": "CC(C)NCC(O)COc1ccccc1CCCSCC(=O)NCCOCCOCCNC(=O)OC(C)(C)C (stereo not given)", "reported.property": "Papp at 7 h", "obs.value": 0.0189}
{"molecule": "NCCOCCOCC(=O)NCc1cccc(C(=O)N2CCC(CCCCNC(=O)/C=C/c3cccnc3)CC2)c1", "reported.property": "Papp at 7 h", "obs.value": 0.016}
{"molecule": "Cc1nc(Nc2ncc(C(=O)Nc3c(C)cccc3Cl)s2)cc(N2CCNCC2)n1", "reported.property": "Papp at 7 h", "obs.value": 0.0371}
{"molecule": "Cc1sc2c(c1C)C(c1ccc(Cl)cc1)=N[C@@H](CC(=O)NCCOCCOCCNC(=O)OC(C)(C)C)c1nnc(C)n1-2", "reported.property": "Papp at 7 h", "obs.value": 6.22}
{"molecule": "Cc1nc(Nc2ncc(C(=O)Nc3c(C)cccc3Cl)s2)cc(N2CCN(CCO)CC2)n1.O", "reported.property": "Papp at 7 h", "obs.value": 1.49}
{"molecule": "C=CCc1ccccc1OCC(O)CNC(C)C (stereo not given)", "reported.property": "Papp at 7 h", "obs.value": 10.9}
{"molecule": "Cc1sc2c(c1C)C(c1ccc(Cl)cc1)=N[C@@H](CC(=O)OC(C)(C)C)c1nnc(C)n1-2", "reported.property": "Papp at 7 h", "obs.value": 2.24}
{"molecule": "CC(C)(C)OC(=O)NCCOCCOCC(=O)NCc1cccc(C(=O)N2CCC(CCCCNC(=O)/C=C/c3cccnc3)CC2)c1", "reported.property": "Papp at 7 h", "obs.value": 1.2}
{"molecule": "NCc1cccc(C(=O)N2CCC(CCCCNC(=O)/C=C/c3cccnc3)CC2)c1", "reported.property": "Papp at 7 h", "obs.value": 0.092}
{"molecule": "COC(=O)CSCCCc1ccccc1OCC(O)CNC(C)C (stereo not given)", "reported.property": "Papp at 7 h", "obs.value": 0.0436}
{"molecule": "Cc1nc(Nc2ncc(C(=O)Nc3c(C)cccc3Cl)s2)cc(N2CCN(CCOCCOCCN)CC2)n1", "reported.property": "Papp at 7 h", "obs.value": 0.056}
{"molecule": "Cc1sc2c(c1C)C(c1ccc(Cl)cc1)=N[C@@H](CC(=O)NCCOCCOCCN)c1nnc(C)n1-2", "reported.property": "Papp at 7 h", "obs.value": 0.0146}
{"molecule": "Cc1nc(Nc2ncc(C(=O)Nc3c(C)cccc3Cl)s2)cc(N2CCN(CCOCCOCCNC(=O)C3C(C(=O)O)C(C(=O)O)C3C(=O)O)CC2)n1 (stereo not given)", "reported.property": "Papp at 7 h", "obs.value": 0.0122}
{"molecule": "NCCOCCOCC(=O)N1CCN(C(=O)c2cc(Cc3n[nH]c(=O)c4ccccc34)ccc2F)CC1", "reported.property": "Papp at 7 h", "obs.value": 0.00119}
{"molecule": "Cc1nn(CCOCCOCCNC(=O)OC(C)(C)C)cc1-c1ccc2cc(CCN3CCC[C@H]3C)ccc2n1", "reported.property": "Papp at 7 h", "obs.value": 0.873}

====

- assay.target: Bromodomain-containing protein 4 (Homo sapiens)
- experiment.description: Inhibition of BRD4 in human MX1 cells assessed as decrease in cell proliferation after 3 days by Celltiter-Glo assay relative to parent compound
- Type: cell-based
Property: fold change (FC); scope: individual compounds
reported.property: fold change (FC)

{"compound": "Cc1sc2c(c1C)C(c1ccc(Cl)cc1)=N[C@@H](CC(=O)NCCOCCOCCNC(=O)CS(=O)(=O)O)c1nnc(C)n1-2", "limit.operator": ">", "obs.value": 50}
{"compound": "Cc1sc2c(c1C)C(c1ccc(Cl)cc1)=N[C@@H](CC(=O)NCCOCCOCCNC(=O)OC(C)(C)C)c1nnc(C)n1-2", "limit.operator": "=", "obs.value": 3.65}
{"compound": "Cc1sc2c(c1C)C(c1ccc(Cl)cc1)=N[C@@H](CC(=O)NCCOCCOCCNC(=O)CCCCCC1(C)C(/C=C/C=C/C=C3/N(CCCS(=O)(=O)O)c4ccc(S(=O)(=O)O)cc4C3(C)C)=[N+](CCCS(=O)(=O)[O-])c3ccc(S(=O)(=O)O)cc31)c1nnc(C)n1-2 (stereo not given in full)", "limit.operator": ">", "obs.value": 50}
{"compound": "Cc1sc2c(c1C)C(c1ccc(Cl)cc1)=N[C@@H](CC(=O)NCCOCCOCCNC(=O)C1C(C(=O)O)C(C(=O)O)C1C(=O)O)c1nnc(C)n1-2 (stereo not given in full)", "limit.operator": ">", "obs.value": 50}
{"compound": "Cc1sc2c(c1C)C(c1ccc(Cl)cc1)=N[C@@H](CC(=O)NCCOCCOCCN)c1nnc(C)n1-2", "limit.operator": "=", "obs.value": 17.2}
